Give measured pIC50 for each item. Keep answers brief.
# Experimental Target: HDM2 (Homo sapiens)
# Construct: Thioredoxin (N); made in house; host or cells: E. coli strain BL21(DE3)Rosetta
# Measurement Description: HDM2 FRET assay (inhibition of binding of FITC labeled p53-pocket peptide to HDM2)
# Stated Conditions: 0.5 nM HDM2 (residues 17 to 125), 3nM peptide, two hour incubation at room temperature; read-out: FRET IC50
Answers are plain numbers, as −log10 of the molar value.

C[C@H]1CC[C@H](Cn2c(N3CCOC[C@H]3c3ccccc3)nc3nc(-c4noc(=O)[nH]4)nc(-c4cccc(C(F)F)c4)c32)CC1
8.15
CC(C)c1ccnc(-c2nc3nc(C(=O)O)nc(-c4ccc(F)cc4)c3n2C[C@H]2CC[C@H](C)CC2)c1
6.40
C[C@H]1CC[C@H](Cn2c(N3CCOC[C@H]3c3ccccc3)nc3nc(-c4noc(=O)[nH]4)nc(-c4cccc(Cl)c4)c32)CC1
8.90
CC(C)C[C@H]1COCCN1c1nc2nc(-c3noc(=O)[nH]3)nc(-c3cccc(Cl)c3)c2n1C[C@H]1CC[C@H](C)CC1
7.32
CC(C)S(=O)(=O)c1nc(N[C@H](C)C2CCC2)c2c(n1)nc(N1CCOC[C@H]1c1ccccc1)n2C[C@H]1CC[C@H](C)CC1
7.68

Okay, here is my list. What is pIC50 for each of these?
1. CSC1(C(=O)O)CCN(c2nc(N[C@H](C)C3CCC3)c3c(n2)nc(N2CCOC[C@H]2c2ccccc2)n3C[C@H]2CC[C@H](C)CC2)C1 (stereo partly drawn)
2. C[C@H]1CC[C@H](Cn2c(N3CCOC[C@H]3c3ccc(F)cc3)nc3nc(-c4noc(=O)[nH]4)nc(-c4cncc(Cl)c4)c32)CC1
3. C[C@@H]1COC[C@@H](C)N1c1nc2nc(-c3n[nH]c(=O)o3)nc(-c3cncc(Cl)c3)c2n1C[C@H]1CC[C@H](C)CC1
4. C[C@@H]1OC(=O)N(c2nc3nc(-c4noc(=O)[nH]4)nc(-c4cccc(Cl)c4)c3n2C[C@H]2CC[C@H](C)CC2)[C@@H]1c1ccccc1

6.60
8.86
7.96
8.52

For each entry beneath this line, provide reported pIC50.
1. CC(C)c1ccnc(-c2nc3nc(S(C)(=O)=O)nc(N[C@H](C)C4CCC4)c3n2C[C@H]2CC[C@H](C)CC2)c1
2. CC(C)c1ccnc(-c2nc3nc(-c4nnn[nH]4)nc(N[C@H](C)C4CCC4)c3n2Cc2ccc(C(F)(F)F)cc2)c1
3. Cc1cccc(-c2nc(-c3n[nH]c(=O)o3)nc3nc(N4CCOC[C@@H]4C)n(C[C@H]4CC[C@H](C)CC4)c23)c1

1. 7.14
2. 8.08
3. 6.00

* * *

# Experimental Target: HDM2 (Homo sapiens, UniProt Q00987)
# Construct: Thioredoxin (N); made in house; host or cells: E. coli strain BL21(DE3)Rosetta
# Sequence (Q00987 17-125): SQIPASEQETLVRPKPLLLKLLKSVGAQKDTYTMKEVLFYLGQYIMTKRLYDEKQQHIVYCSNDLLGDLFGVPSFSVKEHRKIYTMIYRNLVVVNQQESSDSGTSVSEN
# Measurement Description: HDM2 FRET assay (inhibition of binding of FITC labeled p53-pocket peptide to HDM2)
# Stated Conditions: 0.5 nM HDM2 (residues 17 to 125), 3nM peptide, two hour incubation at room temperature; read-out: FRET IC50
pIC50: −log10 of the molar value.
Output class 1 for pIC50 not less than 8; output class 0 otherwise.

C[C@H]1CC[C@H](Cn2c(N3CCOC[C@H]3c3ccccc3)nc3nc(-c4noc(=O)[nH]4)nc(-c4cc(Cl)cnc4F)c32)CC1 [Example 16.108]
class 1
C[C@H]1CC[C@H](Cn2c(N3CCOC[C@H]3CF)nc3nc(-c4n[nH]c(=O)o4)nc(-c4cncc(Cl)c4)c32)CC1 [Example 16.139]
class 0
CONC(=O)c1nc(N[C@H](C)C2CCC2)c2c(n1)nc(-c1cc(C(C)C)ccn1)n2Cc1ccc(C(F)(F)F)cc1 [Example 12.32]
class 0

Could you please find out whether C[C@](CO)(Nc1nc2nc(-c3noc(=O)[nH]3)nc(-c3cccc(Cl)c3)c2n1C[C@H]1CC[C@H](C)CC1)c1ccccc1 [Example 16.5] has pIC50 that meets 8 or exceeds it?
class 1

* * *

Answer each item with its documented pIC50.
# Experimental Target: HDM2 (Homo sapiens, UniProt Q00987)
# Construct: Thioredoxin (N); made in house; host or cells: E. coli strain BL21(DE3)Rosetta
# Measurement Description: HDM2 FRET assay (inhibition of binding of FITC labeled p53-pocket peptide to HDM2)
# Stated Conditions: Table 9; read-out: FRET IC50
Give bare numbers, as −log10 of the molar value.

Previously resolved entries follow.
CCN(CC1CCCCC1)c1nc2nc(-c3noc(=O)[nH]3)nc(N[C@H](C)C3CCC3)c2n1Cc1ccc(C(F)(F)F)cc1
7.57
C[C@@H](Nc1nc(C(=O)O)nc2nc(N3CCOCC3)n(Cc3ccc(C(F)(F)F)cc3)c12)C1CCC1
7.29
C[C@@H](Nc1nc(C(=O)O)nc2nc(N3CCOC4(CCCC4)C3)n(Cc3ccc(C(F)(F)F)cc3)c12)C1CCC1
7.71
C[C@@H](Nc1nc(C(=O)O)nc2nc(N[C@H](CO)c3ccccc3)n(Cc3ccc(C(F)(F)F)cc3)c12)C1CCC1
7.82
C[C@@H]1COCCN1c1nc2nc(-c3noc(=O)[nH]3)nc(N[C@H](C)C3CCC3)c2n1Cc1ccc(C(F)(F)F)cc1
8.17

Hi there! I need pIC50 for each item below, if you can.
1. C[C@@H](Nc1nc(-c2noc(=O)[nH]2)nc2nc(N3CCCCC3Cc3ccccc3)n(Cc3ccc(C(F)(F)F)cc3)c12)C1CCC1 (stereo partly shown)
2. CC(C)CC1CCCCN1c1nc2nc(C(=O)O)nc(N[C@H](C)C3CCC3)c2n1Cc1ccc(C(F)(F)F)cc1 (stereo partly shown)
3. COc1ccc(C2CCCCN2c2nc3nc(C(=O)O)nc(N[C@H](C)C4CCC4)c3n2Cc2ccc(C(F)(F)F)cc2)cc1 (stereo partly shown)
4. CC1CCCN(c2nc3nc(C(=O)O)nc(N[C@H](C)C4CCC4)c3n2Cc2ccc(C(F)(F)F)cc2)C1 (stereo partly shown)

1: 7.22; 2: 8.27; 3: 8.03; 4: 7.91

* * *

# Experimental Target: HDM2 (Homo sapiens, UniProt Q00987)
# Construct: Thioredoxin (N); made in house; host or cells: E. coli strain BL21(DE3)Rosetta
# Measurement Description: HDM2 FRET assay (inhibition of binding of FITC labeled p53-pocket peptide to HDM2)
# Stated Conditions: 0.5 nM HDM2 (residues 17 to 125), 3nM peptide, two hour incubation at room temperature; read-out: FRET IC50
Assignment: determine reported IC50 for the given compounds.
One number for each entry, in nM.

COc1ncc(Cl)cc1-c1nc(-c2n[nH]c(=O)o2)nc2nc(N3CCOC[C@H]3c3ccccc3)n(C[C@H]3CC[C@H](C)CC3)c12
0.882
Cc1csc([C@@H]2COCCN2c2nc3nc(-c4noc(=O)[nH]4)nc(-c4cccc(Cl)c4)c3n2C[C@H]2CC[C@H](C)CC2)n1
9.14
C[C@@H]1CN(C)C(=O)CN1c1nc2nc(-c3noc(=O)[nH]3)nc(-c3cccc(Cl)c3)c2n1C[C@H]1CC[C@H](C)CC1
11.5

Batch request: IC50 per item, same order as input.
1. C[C@@H](Nc1nc(N2CCC(C(=O)O)C2)nc2nc(N3CCOC[C@H]3c3ccccc3)n(C[C@H]3CC[C@H](C)CC3)c12)C1CCC1 (stereo partly shown)
2. C[C@H]1CC[C@H](Cn2c(N3CCOC[C@H]3c3ccccc3F)nc3nc(-c4n[nH]c(=O)o4)nc(-c4cncc(Cl)c4)c32)CC1
3. Cc1cccc(-c2nc(-c3n[nH]c(=O)o3)nc3nc(N4CCOCC4)n(C[C@H]4CC[C@H](C)CC4)c23)c1
4. C[C@H](CO)Nc1nc2nc(-c3n[nH]c(=O)o3)nc(-c3cccc(Cl)c3)c2n1C[C@H]1CC[C@H](C)CC1
5. C[C@@H](Nc1nc(NCCO)nc2nc(N3CCOC[C@H]3c3ccccc3)n(C[C@H]3CC[C@H](C)CC3)c12)C1CCC1

1: 199; 2: 0.494; 3: 563; 4: 71; 5: 885

Below are some compounds; for each one, tell me its IC50.
1. CC(C)(CO)Nc1nc2nc(-c3noc(=O)[nH]3)nc(-c3cccc(Cl)c3)c2n1C[C@H]1CC[C@H](C)CC1
2. C[C@@H]1COCCN1c1nc2nc(-c3n[nH]c(=O)o3)nc(-c3cncc(Cl)c3)c2n1C[C@H]1CC[C@H](C)CC1

[17.8, 27.7]

Please look at the items below and tell me IC50 for each one, in order.
1. Cc1nnc([C@@H]2COCCN2c2nc3nc(-c4noc(=O)[nH]4)nc(-c4cccc(Cl)c4)c3n2C[C@H]2CC[C@H](C)CC2)o1
2. C[C@@H](Nc1nc(CO)nc2nc(N3CCOC[C@H]3c3ccccc3)n(Cc3ccc(C(F)(F)F)cc3)c12)C1CCC1
3. C[C@@H](Nc1nc(N2CCC[C@H]2C(=O)O)nc2nc(N3CCOC[C@H]3c3ccccc3)n(C[C@H]3CC[C@H](C)CC3)c12)C1CCC1
4. CCNC(=O)c1nc(N[C@H](C)C2CCC2)c2c(n1)nc(N1CCOC[C@H]1c1ccccc1)n2C[C@H]1CC[C@H](C)CC1
5. C[C@@H]1OCCN(c2nc3nc(-c4n[nH]c(=O)o4)nc(-c4cncc(Cl)c4)c3n2C[C@H]2CC[C@H](C)CC2)[C@@H]1c1ccccc1
6. CC(C)c1ccnc(-c2nc3nc(C(=O)O)nc(N(C)[C@H](C)C4CCC4)c3n2C[C@H]2CC[C@H](C)CC2)c1
7. CC(c1nc2nc(-c3noc(=O)[nH]3)nc(-c3cccc(Cl)c3)c2n1C[C@H]1CC[C@H](C)CC1)C1CCOCC1 (relative stereo)
8. C[C@@H](Nc1nc(-c2nnnn2C)nc2nc(N3CCOC[C@H]3c3ccccc3)n(C[C@H]3CC[C@H](C)CC3)c12)C1CCC1

1. 79.1
2. 151
3. 987
4. 1.63
5. 28.9
6. 10.5
7. 14.2
8. 27.3
